- STUDY_SYSTEM: Fatty-acid amide hydrolase 1 (Homo sapiens, UniProt O00519)
- Sequence (O00519 whole entry): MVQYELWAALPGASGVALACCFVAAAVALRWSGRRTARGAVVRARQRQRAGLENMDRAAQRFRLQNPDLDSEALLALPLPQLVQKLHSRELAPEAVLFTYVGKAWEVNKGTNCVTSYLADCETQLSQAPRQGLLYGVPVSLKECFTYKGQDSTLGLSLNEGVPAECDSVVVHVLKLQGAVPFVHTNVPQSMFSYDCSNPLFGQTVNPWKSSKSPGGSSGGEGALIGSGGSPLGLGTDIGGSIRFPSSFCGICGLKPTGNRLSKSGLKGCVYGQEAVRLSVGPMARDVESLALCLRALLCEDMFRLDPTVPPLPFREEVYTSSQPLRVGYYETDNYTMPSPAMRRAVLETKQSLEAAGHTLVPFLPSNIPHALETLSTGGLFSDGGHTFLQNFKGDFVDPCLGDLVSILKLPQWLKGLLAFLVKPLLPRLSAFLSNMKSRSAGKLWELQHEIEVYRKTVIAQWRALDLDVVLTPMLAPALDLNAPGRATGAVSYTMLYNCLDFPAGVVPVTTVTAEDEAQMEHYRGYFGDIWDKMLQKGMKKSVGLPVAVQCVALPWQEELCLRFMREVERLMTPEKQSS
- TEST_DESCRIPTION: Inhibition of FAAH-mediated [ethanol-amine-1-3H]AEA hydrolysis in human U937 cells preincubated for 15 mins measured 15 mins post AEA addition by liquid scintillation counting
pIC50: −log10 of the molar value.
Each entry gets No if its pIC50 stays under 5, and Yes if its pIC50 is 5 or above.

CC/C=C\C/C=C\C/C=C\CCCCCCCC(=O)NCc1cccc(OC)c1    No
CCC/C=C/C/C=C/CCC/C=C/C=C/C(=O)NCC(C)CC (stereo not drawn)    No
CCCCC/C=C\C/C=C\CCCCCCCC(=O)NCc1ccccc1    Yes

IN: Hi team, for `CCCCCCCC/C=C\CCCCCCCC(=O)N[C@@H](CO)Cc1ccc(O)cc1` , is the recorded pIC50 at or above 5?
OUT: No

IN: What do you get for `CCC/C=C\C#C/C=C\C=C\CC/C=C/C=C/C(=O)NCC(C)C` ?
OUT: No
